# system: CYP2D6 (Homo sapiens)
# Construct: from tissue; host or cells: human liver microsomes (pooled in the time-dependent assay)
# Sequence (P10635 whole entry): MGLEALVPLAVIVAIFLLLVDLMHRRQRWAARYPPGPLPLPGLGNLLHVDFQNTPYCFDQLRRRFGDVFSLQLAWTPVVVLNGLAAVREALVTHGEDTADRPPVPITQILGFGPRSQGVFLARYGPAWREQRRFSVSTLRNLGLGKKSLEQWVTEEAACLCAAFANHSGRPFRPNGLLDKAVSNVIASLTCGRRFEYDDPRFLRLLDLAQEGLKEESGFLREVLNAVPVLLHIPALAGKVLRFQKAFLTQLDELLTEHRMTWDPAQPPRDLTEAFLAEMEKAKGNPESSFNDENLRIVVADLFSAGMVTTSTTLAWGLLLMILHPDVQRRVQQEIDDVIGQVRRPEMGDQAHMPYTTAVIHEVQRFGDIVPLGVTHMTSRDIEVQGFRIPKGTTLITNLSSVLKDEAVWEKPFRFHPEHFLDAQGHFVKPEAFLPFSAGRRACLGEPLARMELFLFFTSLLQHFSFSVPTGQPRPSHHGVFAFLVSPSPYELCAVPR
# assay-comment: direct inhibition of CYP450 in human liver microsomes
# Format: in vitro ADME
# condition-info: 3 uM, % of non-inhibited control, read-out: CYP2D6 T0 % activity
activity at 3 µM reference
Report only the number, with the unit % understood.

Check out these entries, answers already filled in.
INSERT INTO assay_data (compound, endpoint_value) VALUES
  ('Cn1cncc1-c1ccnc(C(=O)Nc2ccc(C(C)(C)O)nc2)n1', 103),
  ('CO[C@H]1CC[C@H](NC(=O)c2nccc(-n3ccnc3)n2)CC1', 93),
  ('Cn1cncc1-c1ccnc(C(=O)N[C@H]2CC[C@H](O)CC2)n1', 89),
  ('CO[C@H]1CC[C@H](NC(=O)c2cc(C3CCC(F)(F)CC3)nc(-c3cncn3C)n2)CC1', 98),
  ('[2H]c1nc([2H])n(-c2nc(C)cc(C(=O)N[C@H]3CC[C@H](OCCOC)CC3)n2)c1[2H] [Comparator Compound A, reference compound]', 95);

Given item `CC(C)(O)c1ccc(NC(=O)c2nccc(-n3ccnc3)n2)cn1` , the value recorded as its activity at 3 µM is 104

Given item `CO[C@H]1CC[C@H](NC(=O)c2cc(C3(C)COC3)nc(-c3cncn3C)n2)CC1` , the value recorded as its activity at 3 µM is 95
